Please respond with reported kinase still bound, per cent of control for every item in the list.
Target: NLK (human)
Test: KINOMEscan competition binding
Conditions: compound 10.0 µM
Write it as a number; the unit % goes unstated.

Measured kinase still bound, per cent of control, `Cc1ccc(NC(=O)c2cccc(C(C)(C)C#N)c2)cc1Nc1ccc2ncn(C)c(=O)c2c1` : 48

Entry under test: `CCCS(=O)(=O)Nc1ccc(F)c(C(=O)c2c[nH]c3ncc(-c4ccc(Cl)cc4)cc23)c1F` . Its kinase still bound, per cent of control was 81

Noted for `CCN1CCN(Cc2ccc(Nc3ncc4c(n3)N(C)c3ccccc3C(=O)N4C)cc2C(F)(F)F)CC1` : its kinase still bound, per cent of control reads 56

Lab note: measured kinase still bound, per cent of control of `O=C(NOC[C@H](O)CO)c1ccc(F)c(F)c1Nc1ccc(I)cc1F` was 77

// sample `COc1cc(C(=O)NC2CCN(C)CC2)ccc1Nc1ncc2c(n1)N(C1CCCC1)CCC(=O)N2C(C)C` , its kinase still bound, per cent of control was 100

The value of kinase still bound, per cent of control measured for the compound `O=C(NC1CC1)c1cccc(-c2ccc3c(NC(=O)C4CC4)n[nH]c3c2)c1` turned out to be 31

The measured kinase still bound, per cent of control associated with `Nc1ccc(-c2ccc3ncc4ccc(=O)n(-c5cccc(C(F)(F)F)c5)c4c3c2)cn1` reads 86

Measured kinase still bound, per cent of control, `C=CC(=O)Nc1cc(NC(=O)c2ccc(C)c(NC(=O)c3ccno3)c2)cc(C(F)(F)F)c1` : 93

The recorded kinase still bound, per cent of control for `Cc1ccc2nc(NCCN)c3ncc(C)n3c2c1` is 100

###

Assign kinase still bound, per cent of control to each entry below.
Target: MYO3A (human)
Assay: KINOMEscan competition binding
Conditions: compound 10.0 µM
Provide the reading as a plain figure in %.

Please fill in: kinase still bound, per cent of control reported for `C=CC(=O)Nc1cccc(Nc2nc(N[C@H]3CC[C@H](N(C)C)CC3)nc3c2ncn3C(C)C)c1` = 94

Measured kinase still bound, per cent of control, `C[C@@H](Oc1cc(-n2cnc3ccc(CN4CCN(C)CC4)cc32)sc1C(N)=O)c1ccccc1C(F)(F)F` : 78

What the record says about `CCC(=O)N1CCN(c2ccc(-n3c(=O)ccc4cnc5ccc(-c6cnc7ccccc7c6)cc5c43)cc2C(F)(F)F)CC1` : kinase still bound, per cent of control is 100

Value of kinase still bound, per cent of control reported for the compound `Cc1ccc2nc(NCCN)c3ncc(C)n3c2c1` is 100

`N#Cc1c(NC(=O)c2cccc3ccccc23)sc2c1CCCC2` has a reported kinase still bound, per cent of control of 42

###

Molecular target: PAK7 (human) (UniProt Q9P286)
Sequence (Q9P286 whole entry, looked up): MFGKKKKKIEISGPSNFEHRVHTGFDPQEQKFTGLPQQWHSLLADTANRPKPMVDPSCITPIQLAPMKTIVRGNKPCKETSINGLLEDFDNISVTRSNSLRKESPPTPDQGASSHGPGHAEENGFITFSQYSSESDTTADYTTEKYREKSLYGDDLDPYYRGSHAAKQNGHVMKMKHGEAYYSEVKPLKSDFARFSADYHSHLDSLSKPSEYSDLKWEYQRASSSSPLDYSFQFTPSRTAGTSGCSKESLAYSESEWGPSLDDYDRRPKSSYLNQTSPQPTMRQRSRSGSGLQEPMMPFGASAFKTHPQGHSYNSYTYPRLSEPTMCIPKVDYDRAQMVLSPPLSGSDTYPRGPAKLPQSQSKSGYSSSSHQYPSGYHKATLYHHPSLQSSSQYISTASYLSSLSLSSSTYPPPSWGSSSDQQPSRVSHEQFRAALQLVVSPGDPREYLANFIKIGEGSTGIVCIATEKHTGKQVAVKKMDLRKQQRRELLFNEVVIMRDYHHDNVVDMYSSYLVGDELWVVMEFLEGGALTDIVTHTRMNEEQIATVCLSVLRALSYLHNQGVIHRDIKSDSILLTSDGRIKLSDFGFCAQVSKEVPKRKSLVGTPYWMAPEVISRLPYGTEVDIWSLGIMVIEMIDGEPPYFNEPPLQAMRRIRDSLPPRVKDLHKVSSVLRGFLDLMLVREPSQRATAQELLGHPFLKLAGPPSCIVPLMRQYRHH
Test: KINOMEscan competition binding
Details: compound 10.0 µM
Would you kindly list kinase still bound, per cent of control for each of these compounds?
Entry rule: numbers only, all in %.

Value of kinase still bound, per cent of control reported for the compound `CN(C)C/C=C/C(=O)Nc1cccc(Nc2ncc3c(n2)N(C)c2ccccc2C(=O)N3C)c1` is 36

Item: `CCC(=O)N1CCN(c2ccc(-n3c(=O)ccc4cnc5ccc(-c6cnc7ccccc7c6)cc5c43)cc2C(F)(F)F)CC1` | kinase still bound, per cent of control: 87

Value of kinase still bound, per cent of control reported for the compound `OCCCNc1cc(-c2ccnc(Nc3cccc(Cl)c3)n2)ccn1` is 100

Short answer for `Cc1ccc2nc(NCCN)c3ncc(C)n3c2c1` : kinase still bound, per cent of control was 100

`COc1cc(N2CCN(C)CC2)ccc1Nc1nc(N)c(C(=O)c2c(Cl)cccc2Cl)s1` has a reported kinase still bound, per cent of control of 63

Consider `CCOc1cc2ncc(C#N)c(Nc3ccc(OCc4ccccn4)c(Cl)c3)c2cc1NC(=O)/C=C/CN(C)C` . Its measured kinase still bound, per cent of control is 72

Item: `O=C(NC1CC1)c1cccc(-c2ccc3c(NC(=O)C4CC4)n[nH]c3c2)c1` | kinase still bound, per cent of control: 67

Record COc1cc(C(=O)NC2CCN(C)CC2)ccc1Nc1ncc2c(n1)N(C1CCCC1)C(C)CC(=O)N2C (stereo not given) . Reported kinase still bound, per cent of control: 100

Entry `O=C1Nc2ccc(I)cc2/C1=C/c1cc(Br)c(O)c(Br)c1` , kinase still bound, per cent of control reported as 87

Input `C=CC(=O)Nc1cc(NC(=O)c2ccc(C)c(NC(=O)c3ccno3)c2)cc(C(F)(F)F)c1` . Output kinase still bound, per cent of control: 94

Recorded result, `CCN1CCN(Cc2ccc(Nc3ncc4c(n3)N(C)c3ccccc3C(=O)N4C)cc2C(F)(F)F)CC1` , kinase still bound, per cent of control: 81

For this compound ( `Cc1cc([C@@H](C)Nc2ccccc2C(=O)O)c2nc(N3CCOCC3)cc(=O)n2c1` ), measured kinase still bound, per cent of control is 99

Reported kinase still bound, per cent of control for `CC[C@@H]1C(=O)N(C)c2cnc(Nc3ccc(C(=O)NC4CCN(C)CC4)cc3OC)nc2N1C1CCCC1` was 100

The reported kinase still bound, per cent of control of the compound `C=CC(=O)Nc1cccc(Oc2nc(Nc3ccc(N4CCN(C)CC4)cc3OC)ncc2Cl)c1` was 100

In plain terms, `C=CC(=O)Nc1cccc(Nc2nc(N[C@H]3CC[C@H](N(C)C)CC3)nc3c2ncn3C(C)C)c1` has a documented kinase still bound, per cent of control of 17

The value of kinase still bound, per cent of control measured for the compound `Nc1ccc(-c2ccc3ncc4ccc(=O)n(-c5cccc(C(F)(F)F)c5)c4c3c2)cn1` turned out to be 69

The compound listed as `O=C(O)c1ccc(Nc2ncc3c(n2)-c2ccc(Cl)cc2C(c2c(F)cccc2F)=NC3)cc1` shows kinase still bound, per cent of control equal to 93

The value of kinase still bound, per cent of control measured for the compound `COc1cc(C(=O)NC2CCN(C)CC2)ccc1Nc1ncc2c(n1)N(C1CCCC1)CCC(=O)N2C(C)C` turned out to be 100

Documented kinase still bound, per cent of control of `Cc1ccc(C(=O)Nc2cccc(C(F)(F)F)c2)cc1Nc1cncc(C(N)=O)c1` : 100

// sample `N#Cc1c(NC(=O)c2cccc3ccccc23)sc2c1CCCC2` , its kinase still bound, per cent of control was 100

Query `C[C@@H](Oc1cc(-n2cnc3ccc(CN4CCN(C)CC4)cc32)sc1C(N)=O)c1ccccc1C(F)(F)F` yields kinase still bound, per cent of control of 60

In plain terms, `O=C(NOC[C@H](O)CO)c1ccc(F)c(F)c1Nc1ccc(I)cc1F` has a documented kinase still bound, per cent of control of 100

Reported kinase still bound, per cent of control ( `Cc1ccc(NC(=O)c2cccc(C(C)(C)C#N)c2)cc1Nc1ccc2ncn(C)c(=O)c2c1` ) = 100

For this compound ( `Cn1c(=O)n(-c2ccc(C(C)(C)C#N)cc2)c2c3cc(-c4cnc5ccccc5c4)ccc3ncc21` ), measured kinase still bound, per cent of control is 100

Query `CCCS(=O)(=O)Nc1ccc(F)c(C(=O)c2c[nH]c3ncc(-c4ccc(Cl)cc4)cc23)c1F` yields kinase still bound, per cent of control of 78

The reported measurements were obtained from the kinase profiling compilation of Christmann-Franck et al. (2016).
